Molecular target: T1, rat α-CGRP (Rattus norvegicus, UniProt P01256)
T1 construct: rat α (1-37); host or cells: synthetic peptide
T1 sequence (P01256 83-119 limits assumed): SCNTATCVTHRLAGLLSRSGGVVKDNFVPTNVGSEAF
Assay: Biacore affinity of antibody G1 Fab and variants to rat α-CGRP
Type: binding
Conditions: 37° C., Fab, screening mode unless underlined
Reported α-rat koff by item:
Supply the numeric figure in s⁻¹, leaving out any unit text.

molecule	measure name	units symbol	test result
M84: G1 variant: L1 R28N,T30V; L2 A51H,L56T; H2 E54N,A57N; HC-FW3 L991 (printed),A100V (antibody, V domains shown) VH: EVQLVESGGGLVQPGGSLRLSCAASGFTFSNYWISWVRQAPGKGLEWVAEIRSNSDNSATHYAEAVKGRFTISRDNAKNSLYLQMNSLRAEDTAVYYCTVYFDYGLAIQNYWGQGTLVTVSS VL: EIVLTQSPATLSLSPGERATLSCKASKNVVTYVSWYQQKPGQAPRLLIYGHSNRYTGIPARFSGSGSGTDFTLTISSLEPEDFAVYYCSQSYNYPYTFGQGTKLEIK	α-rat koff	s⁻¹	0.0176

Switching to the query record.
Field request: α-rat koff | item: M35: G1 variant: L1 R28N,T30G; H2 E54K,A57S; HC-FW3 L99T,A100V (antibody, V domains shown) VH: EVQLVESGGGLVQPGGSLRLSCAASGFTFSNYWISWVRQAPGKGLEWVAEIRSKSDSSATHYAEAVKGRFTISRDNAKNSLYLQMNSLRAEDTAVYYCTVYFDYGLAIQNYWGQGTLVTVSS VL: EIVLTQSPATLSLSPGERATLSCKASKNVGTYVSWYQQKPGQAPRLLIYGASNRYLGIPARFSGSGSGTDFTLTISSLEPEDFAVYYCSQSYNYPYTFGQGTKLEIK 0.00399

Data origin, for the record: patent US10766952B2
